targetEntity: Tubulin purified from pig brains (Sus scrofa, UniProt P02550+P02554)
Construct: Tubulin is purified from pig brains according to published methods
Sequence (P02550 whole entry): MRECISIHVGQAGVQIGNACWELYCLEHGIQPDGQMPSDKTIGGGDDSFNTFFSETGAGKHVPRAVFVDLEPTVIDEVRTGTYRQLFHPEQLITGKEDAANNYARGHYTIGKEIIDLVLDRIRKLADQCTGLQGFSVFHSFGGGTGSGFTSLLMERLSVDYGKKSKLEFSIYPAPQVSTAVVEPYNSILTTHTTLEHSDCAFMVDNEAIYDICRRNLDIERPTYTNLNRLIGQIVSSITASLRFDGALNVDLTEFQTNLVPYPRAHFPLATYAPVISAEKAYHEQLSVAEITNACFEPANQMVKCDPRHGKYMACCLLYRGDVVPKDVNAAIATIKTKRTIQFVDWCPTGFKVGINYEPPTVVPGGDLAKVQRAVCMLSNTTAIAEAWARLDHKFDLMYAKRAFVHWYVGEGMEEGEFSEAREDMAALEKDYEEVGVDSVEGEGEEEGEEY
Sequence (P02554 whole entry): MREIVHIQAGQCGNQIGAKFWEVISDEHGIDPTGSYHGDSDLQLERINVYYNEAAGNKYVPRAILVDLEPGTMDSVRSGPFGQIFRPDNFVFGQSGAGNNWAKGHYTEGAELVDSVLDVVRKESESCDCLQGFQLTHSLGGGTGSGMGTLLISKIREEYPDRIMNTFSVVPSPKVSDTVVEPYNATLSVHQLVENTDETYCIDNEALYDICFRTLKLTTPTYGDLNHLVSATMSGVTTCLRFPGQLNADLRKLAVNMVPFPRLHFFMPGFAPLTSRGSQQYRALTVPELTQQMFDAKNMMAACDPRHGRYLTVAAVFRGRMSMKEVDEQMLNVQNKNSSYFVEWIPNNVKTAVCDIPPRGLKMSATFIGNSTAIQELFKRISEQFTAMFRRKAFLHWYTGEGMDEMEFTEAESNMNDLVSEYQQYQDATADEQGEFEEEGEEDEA
experimentSummary: Assessment of the inhibition of tubulin polymerization (turbidimetry at 350 nm)
conditionsUsed: concentration which inhibits the rate of polymerization by 50%; tubulin 1 mg/ml, 37° C.; read-out: Inhibition of tubulin polymerization IC 50

compoundStructureString: NC(=O)c1cccc(N2CCN(C(=O)c3[nH]cnc3-c3ccccc3)CC2)c1
IC50: 1100 nM
--
compoundStructureString: Cn1cc(C(=O)N2CCN(c3cccc(C(N)=O)c3)CC2)c(-c2ccccc2)c1
IC50: 720 nM
--
compoundStructureString: N#Cc1cccc(N2CCN(C(=O)c3[nH]c(S)nc3-c3ccccc3)CC2)c1
IC50: 400 nM
--
compoundStructureString: N#Cc1cccc(N2CCN(C(=O)c3[nH]c(C(F)(F)F)nc3-c3ccccc3)CC2)c1
IC50: 574 nM
--
compoundStructureString: CSc1nc(-c2ccccc2)c(C(=O)N2CCN(c3cccc(CO)c3)CC2)[nH]1
IC50: 493 nM
